Catalogue of substances with associated IGFBP-1 (% UTC)
System: IGFBP-1
Assay: IGFBP-1 mRNA expression in HepG2 cells
Type: cell-based, human
Conditions: Experiment 4, insulin-sensitization: HepG2 cells treated with 1 nM insulin for four hours, 48 h post-transfection; mRNA by real-time PCR
In the oligonucleotide strings, read from the 5' end, every base follows the letter of its sugar. An asterisk marks phosphorothioate; unmarked linkages are phosphodiester. Other units and linkages are bracketed, terminal groups are in braces. A string of capitals states the bases alone. e = 2'-O-(2-methoxyethyl) (MOE); [5mC] = 5-methylcytosine; d = 2'-deoxy (DNA)
Measurement kind: IGFBP-1 (% UTC)

{"Substance": "328759 (antisense eG*eA*eG*eG*eG*dA*dT*dT*dG*dT*dA*dT*dG*dA*dA*e[5mC]*eA*eT*e[5mC]*eT) [compound 328759]", "Recorded number": 212}
{"Substance": "328685 (e[5mC]*eG*eG*e[5mC]*e[5mC]*dG*dG*dA*dG*d[5mC]*d[5mC]*dA*dT*dA*dG*eA*e[5mC]*eT*e[5mC]*eG; antisense) [compound 328685]", "Recorded number": 143}
{"Substance": "328384 (eT*e[5mC]*eA*e[5mC]*eG*dT*dG*dG*dA*dG*dA*dG*dG*dA*dG*eT*eT*eA*eA*eA; antisense) [compound 328384]", "Recorded number": 102}
{"Substance": "328691 (e[5mC]*e[5mC]*e[5mC]*e[5mC]*eA*dT*d[5mC]*dT*dT*dA*dG*d[5mC]*dA*dT*d[5mC]*eT*eA*eA*eG*eG) [compound 328691]", "Recorded number": 101}
